Source listed as ChEMBL document CHEMBL1772993.

Assay: Clearance in dog at 1 mg/kg, iv and 4.2 mg/kg, po
Type: ADME, organism-based, Canis lupus familiaris
Details: in vivo
measure: clearance (mL/min/kg)
One number for each entry, in mL/min/kg.

Given the compound O=C1c2ncc3c(c(CN4CCCCC4)cn3Cc3ccc(F)cc3)c2CCN1O , write its reported clearance. 30

====

Experiment: Volume of distribution at steady state in dog at 1 mg/kg, iv and 4.2 mg/kg, po
Format: ADME, organism-based, Canis lupus familiaris
Conditions: in vivo, read-out: Vdss
measure: Vd (L/kg)
One number for each entry, in L/kg.

Dear colleague, please send me the reported Vd for O=C1c2ncc3c(c(CN4CCCCC4)cn3Cc3ccc(F)cc3)c2CCN1O when you can. 6.7
